test: Solubility capability of drug-in-IL (organic acid/MGM ionic liquids), confirmed by PXRD; type: physicochemical; settings: in GA-MGM 1:1; PXRD
measured.endpoint: upper limit of drug dissolution in IL

- C[C@@H]1O[C@@H](OC[C@H]2O[C@@H](Oc3c(-c4ccc(O)c(O)c4)oc4cc(O)cc(O)c4c3=O)[C@H](O)[C@@H](O)[C@@H]2O)[C@H](O)[C@H](O)[C@H]1O [Rutin]: ≥ 20%
- CC(C(=O)O)c1ccc(-c2ccccc2)c(F)c1 (stereo not shown) [Flurbiprofen (FRP), Flurbiprofen]: ≥ 20%
- C[C@H](CS)C(=O)N1CCC[C@H]1C(=O)O [Captopril (CPP), Captopril]: ≥ 20%
- O=[N+]([O-])O[C@@H]1CO[C@H]2[C@@H]1OC[C@@H]2O [Isosorbide mononitrate (ISMN), Isosorbide mononitrate]: ≥ 20%
